test system: Zymoseptoria tritici; assay: Septoria leaf blotch of wheat, whole-plant fungicidal activity (SEPTTR); type: in vivo, Zymoseptoria tritici on wheat plants (variety 'Yuma'); conditions: 72 h, 3DC (3 day curative), read-out: % Disease Control Rating SEPTTR
Measured pest or weed control at 200 ppm of individual entries
quantity: pest or weed control at 200 ppm

| compoundString | quantity | recordedResult |
| --- | --- | --- |
| CCN(C)/C=N/c1cc(C)c(C(=O)Cc2cccc(C(F)(F)F)c2F)cc1C | pest or weed control at 200 ppm | < 20% |
| CCN(C)/C=N/c1cc(C)c(C(=O)Cc2ccc(C)cc2F)cc1C | pest or weed control at 200 ppm | < 20% |
| CCN(C)/C(C)=N/c1cc(C)c(C(=O)CC2CCCC2)cc1C | pest or weed control at 200 ppm | < 20% |
| CCN(C)/C=N/c1cc(C)c(C(=O)CC2CCCCC2)cc1C | pest or weed control at 200 ppm | 20 to 50% |
| CCN(C)/C=N/c1cc(C)c(C(=O)Cc2ccc(Cl)cc2)cc1C | pest or weed control at 200 ppm | 50 to 85% |
| CCN(C)/C=N/c1cc(C)c(C(=O)Cc2ccc(Cl)cc2F)cc1C | pest or weed control at 200 ppm | < 20% |
| CCN(C)/C=N/c1cc(C)c(C(=O)Cc2ccc(C)cc2C)cc1C | pest or weed control at 200 ppm | 50 to 85% |
| CCN(C)/C=N/c1cc(C)c(C(=O)Cc2cccc(C(=O)OC)c2)cc1C | pest or weed control at 200 ppm | < 20% |
| Cc1cc(C(=O)CC2CCCCC2)c(C)cc1/N=C(\S)N(C)C1CCCCC1 | pest or weed control at 200 ppm | < 20% |
| CCN(C)/C=N/c1ccc(C(=O)CC2CCCC2)cc1C | pest or weed control at 200 ppm | < 20% |
| Cc1cc(C(=O)CC2CCCC2)c(C)cc1/N=C/N1CCCCC1 | pest or weed control at 200 ppm | < 20% |
| CCN(C)/C=N/c1ccc(C(=O)CCCC(F)(F)F)c(C)c1C | pest or weed control at 200 ppm | < 20% |

====

system: Phakopsora pachyrhizi; assay: Asian soybean rust, whole-plant fungicidal activity (PHAKPA); assay type: in vivo; conditions: 72 h, 3DC (3 day curative), read-out: % Disease Control Rating PHAKPA
quantity: pest or weed control at 200 ppm

| compoundString | recordedResult |
| --- | --- |
| CCN(/C=N/c1cc(C)c(C(=O)Cc2c(F)cc(F)cc2F)cc1C)CC | > 85% |
| Cc1cc(C(=O)CC2CCCCC2)c(C)cc1/N=C/N(C)C1CCCCC1 | < 20% |
| Cc1cc(C(=O)CC2CCCCC2)c(C)cc1/N=C/N(C)C(C)C | > 85% |
| CCN(C)/C=N/c1cc(C)c(C(=O)C2CCC2)cc1OC | > 85% |
| CCN(C)/C=N/c1cc(C)c(C(=O)Cc2ccc(F)cc2)cc1C | > 85% |
| Cc1cc(C(=O)CC2CCCCC2)c(C)cc1/N=C(\S)N(C)C(C)C | > 85% |
| CCN(/C=N/c1cc(C)c(C(=O)CC2CCCCC2)cc1C)CC | > 85% |
| CCN(C)/C=N/c1cc(C)c(C(=O)CC2CCCC2)cc1OC | > 85% |
| CCN(C)/C=N/c1cc(C)c(C(=O)Cc2ccc(C(C)C)cc2)cc1C | > 85% |
| Cc1cc(C(=O)CC2CCCCC2)c(C)cc1/N=C/N(C)CC(F)(F)F | < 20% |
| CCN(C)/C=N/c1cc(C)c(C(=O)CC2CCCC2)cc1C | > 85% |
| CCN(C)/C=N/c1cc(C)c(C(=O)Cc2ccc3c(c2)CCC3)cc1C | > 85% |

====

test system: Zymoseptoria tritici; test: Septoria leaf blotch of wheat, whole-plant fungicidal activity (SEPTTR); assay type: in vivo, Zymoseptoria tritici on wheat plants (variety 'Yuma'); conditions: 72 h, 3DC (3 day curative), read-out: % Disease Control Rating SEPTTR

| compound | pest or weed control at 200 ppm |
| --- | --- |
| Cc1cc(C(=O)CC2CCCCC2)c(C)cc1/N=C(\S)N(C)C1CC1 [Compound 54] | < 20% |
| CCN(C)/C(S)=N/c1cc(C)c(C(=O)Cc2c(F)cc(F)cc2F)cc1C [Compound 93] | < 20% |
| CCc1cccc(CC(=O)c2cc(C)c(/N=C/N(C)CC)cc2C)c1 [Compound 70] | < 20% |
| Cc1cc(C(=O)CC2CCCCC2)c(C)cc1/N=C(\S)N1CCCC1 [Compound 49] | < 20% |
| Cc1cc(C(=O)CC2CCCCC2)c(C)cc1/N=C(\S)N(C)c1ccccc1 [Compound 51] | < 20% |
| CCN(C)/C(S)=N/c1cc(C)c(C(=O)CC2CCCCC2)cc1C [Compound 61] | < 20% |
| CCN(C)/C=N/c1cc(C)c(C(=O)Cc2ccccc2OC(F)(F)F)cc1C [Compound 33] | 50 to 85% |
| CCN(C)/C=N/c1cc(C)c(C(=O)CC2CCC2)cc1C [Compound 27] | 50 to 85% |
| CCN(C)/C=N/c1cc(C)c(C(=O)Cc2cccc(C(=O)OC)c2F)cc1C [Compound 31] | < 20% |
| Cc1cc(C(=O)CC2CCCCC2)c(C)cc1/N=C/N(C)C(C)C [Compound 59] | > 85% |
| CC/C(=N\c1cc(C)c(C(=O)Cc2c(F)cc(F)cc2F)cc1C)N(C)CC [Compound 87] | < 20% |
| Cc1cc(C(=O)CC2CCCCC2)c(C)cc1/N=C(\S)N(C)C(C)C [Compound 47] | < 20% |
| CCN(C)/C=N/c1ccc(C(=O)CCC(F)(F)F)c(C)c1C [Compound 13] | < 20% |
| Cc1cc(C(=O)CC2CCCC2)c(C)cc1/N=C/N(C)C [Compound 73] | < 20% |
| CCN(C)/C=N/c1cc(C)c(C(=O)CCC(C)C)cc1C [Compound 22] | < 20% |
| CCN(C)/C=N/c1cc(C)c(C(=O)Cc2ccc(C(C)C)cc2)cc1C [Compound 66] | < 20% |
| CCN(C)/C=N/c1cc(C)c(C(=O)CCC(F)(F)C(F)(F)F)cc1C [Compound 29] | 50 to 85% |
| CCN(C)/C=N/c1cc(C)c(C(=O)Cc2ccccc2C)cc1C [Compound 1] | 20 to 50% |
| Cc1cc(C(=O)CC2CCCCC2)c(C)cc1/N=C/N(C)Cc1ccccc1 [Compound 56] | < 20% |
| CCN(C)/C=N/c1ccc(C(=O)Cc2ccc(C)cc2F)c(C)c1C [Compound 11] | < 20% |
| CCN(C)/C=N/c1cc(C)c(C(=O)Cc2ccc(C)cc2)cc1C [Compound 9] | < 20% |
| CCN(C)/C=N/c1cc(C)c(C(=O)Cc2ccccc2OC(F)F)cc1C [Compound 83] | < 20% |
| CCN(C)/C=N/c1cc(C)c(C(=O)Cc2ccc(OC(F)F)cc2)cc1C [Compound 85] | 20 to 50% |
| CCN(C)/C=N/c1cc(C)c(C(=O)Cc2ccc(F)cc2)cc1C [Compound 68] | < 20% |
| CCN(/C=N/c1cc(C)c(C(=O)CC2CCCCC2)cc1C)CC [Compound 58] | < 20% |
| Cc1cc(C(=O)Cc2c(F)cc(F)cc2F)c(C)cc1/N=C/N1CCCCC1 [Compound 81] | < 20% |
| CCN(C)/C=N/c1ccc(C(=O)Cc2cccc(C(F)(F)F)c2)c(C)c1C [Compound 10] | < 20% |
| CCN(C)/C=N/c1cc(C)c(C(=O)CCC(F)(F)F)cc1C [Compound 19] | 20 to 50% |

====

system: Rhynchosporium commune; assay: Leaf blotch of barley, whole-plant fungicidal activity (RHYNSE); assay type: in vivo; conditions: 24 h, 1DP (1 day protectant), read-out: % Disease Control Rating RHYNSE
quantity: pest or weed control at 200 ppm

| compound | recordedResult |
| --- | --- |
| Cc1cc(C(=O)CC2CCCCC2)c(C)cc1/N=C(\S)N1CCCCC1 [Compound 50] | < 20% |
| CCN(C)/C=N/c1cc(C)c(C(=O)Cc2ccc(C(C)C)cc2)cc1C [Compound 66] | > 85% |
| CCCc1ccc(CC(=O)c2cc(C)c(/N=C/N(C)CC)cc2C)cc1 [Compound 64] | > 85% |

====

tested on: Rhynchosporium commune; test: Leaf blotch of barley, whole-plant fungicidal activity (RHYNSE); type: in vivo; conditions: 24 h, 1DP (1 day protectant), read-out: % Disease Control Rating RHYNSE
quantity: pest or weed control at 200 ppm

| compoundString | targetOrTestSystem | recordedResult |
| --- | --- | --- |
| CCN(C)/C=N/c1cc(C)c(C(=O)CC2CCCCC2)cc1C | Rhynchosporium commune | > 85% |
| CCN(C)/C=N/c1ccc(C(=O)Cc2ccc(C)cc2)c(C)c1C | Rhynchosporium commune | < 20% |
| CCN(C)/C=N/c1cc(C)c(C(=O)C2CCC2)cc1C | Rhynchosporium commune | > 85% |
| CCN(C)/C=N/c1cc(C)c(C(=O)Cc2ccc(Cl)cc2F)cc1C | Rhynchosporium commune | > 85% |
| CCN(C)/C=N/c1cc(C)c(C(=O)Cc2c(F)cc(F)cc2F)cc1C | Rhynchosporium commune | > 85% |
